tested on: CCRIS mutagenicity, Ames/micronucleus/aberration tests; experiment: CCRIS mutagenicity studies; conditions: Test System: AMES SALMONELLA TYPHIMURIUM; Strain/Indicator: TA1535; Metabolic Activation: RAT, LIVER, S-9, AROCLOR 1254; Method: STANDARD PLATE
Active and inactive are the calls of the source. The rule behind the calls is not given here.
Please reply with one of these outcomes: active, inactive

Please review the following examples before continuing.
# molecule, target_system, class_name
records = [
    ("NCCCC[C@H](N[C@@H](CCc1ccccc1)C(=O)O)C(=O)N1CCC[C@H]1C(=O)O", "CCRIS mutagenicity, Ames/micronucleus/aberration tests", "inactive"),
    ("CC(=O)O[C@]1(C(C)=O)CC[C@H]2[C@@H]3C[C@H](C)C4=CC(=O)CC[C@]4(C)[C@H]3CC[C@@]21C", "CCRIS mutagenicity, Ames/micronucleus/aberration tests", "inactive"),
]

Look up the recorded call for "COc1ccc2nc(N)sc2c1" in this test. active

Thanks! And "C[C@]12C=CC3=C4CCC(=O)C=C4CC[C@H]3[C@@H]1CC[C@@H]2O" ? inactive

Next: O=P(O)(OCC(Br)CBr)OCC(Br)CBr (configuration not stated) active

Record: "CCc1ccc2c(c1[N+](=O)[O-])C(=O)c1ccccc1C2=O" inactive

Would you kindly repeat that for "Cc1nc2ccccc2s1" ? inactive

Next: CC(NC(=O)COc1ccc(Cl)cc1Cl)C(=O)O (configuration not stated) inactive

Repeat with "COC/C(=C/c1ccccc1)OC" inactive

These data points were gathered from PubChem BioAssay AID1259407.
